Listed next: entries and their corresponding koff.
assayed target: IgG1 (product of Sigma-Aldrich)
protocol details: SPR (Biacore T100), Fc-binding protein immobilized on CM5 chip, IgG1 in flow
Kindly answer with a numeric value in s⁻¹, unit omitted.

FcR35c-containing Fc-binding protein (SEQ ID NO: 5) (receptor) KIEEAMGMRTGDMPKAEVILEPPWNRVLEQDSVTLKCRGAHSPDDDSTQWFHNESLIPSQASSFIIDSASVEDSGEYRCQTSLSTLSEPVLLEVHIGWLLLQAPRWEFVEGEPIHLRCHSWRNTALHKVMFLQNGKVRKYFHHNSDFVIPKATLEDSGSYSCRGLVGRKNVSSEAVEITVTPGGHHHHHH
0.022
FcR35d-containing Fc-binding protein (SEQ ID NO: 7) (receptor) KIEEAMGMRTGDMPKAEVILEPPWNRVLEQDSVTLKCRGAHSPDDDSTQWFHNERLIPSQASSFIIDSASVDDSGEYRCQTSLSTLSDPVQLEVHIGWLLLQAPRWEFVEGEPIHLRCHSWRNTALHKVMFLQNGKVRKYFHHNSDFVIPKATLEDSGSYSCRGLVGRKKVSSGAVDITVTQGGHHHHHH
0.031
FcR9_F, Fc-binding protein having phenylalanine substituting for valine at position 192 of FcR9 (SEQ ID NO: 20) (receptor) KIEEAMGMRTEDLPKAEVILEPQWNRVLEKDSVTLKCRGAYSPEDNSTQWFHNESLISSQASSYLIDAATVDDSGEYRCQTSLSTLSDPVQLEVHIGWLLLQAPRWEFKEGDPIHLRCHSWKNTALHKVTYLQNGKGRKYFHHNSDFYIPKATLKDSGSYSCRGLFGSKNVSSETVNITITQGGHHHHHH
0.3

# ---- query binder ----
Prompt: Fill blank: measured koff of the binder Fc-binding protein FcR9 (SEQ ID NO: 20) (receptor) KIEEAMGMRTEDLPKAEVILEPQWNRVLEKDSVTLKCRGAYSPEDNSTQWFHNESLISSQASSYLIDAATVDDSGEYRCQTSLSTLSDPVQLEVHIGWLLLQAPRWEFKEGDPIHLRCHSWKNTALHKVTYLQNGKGRKYFHHNSDFYIPKATLKDSGSYSCRGLVGSKNVSSETVNITITQGGHHHHHH is ____.
Completion: 0.031
